Tested on: DIGSA (Digitaria Sanguinalis (L.) SCOP, large crabgrass)
Assay: Weed control test, foliage treatment (Test Example 1, Table 7)
Assay type: in vivo
Settings: Digitaria sanguinalis, foliar, 0.2 kg/ha, read-out: Plant damage (herbicidal activity), visually evaluated, DIGSA
# key: entry, value: pest or weed control at 200 g/ha
All answers are understood in %, so give the number only.

>  <structure.as.smiles>
C[C@@H](Oc1ccc(OC(F)=Cc2ccc(F)cc2)cc1)C(=O)Nc1nc2cc(Cl)ccc2o1

>  <tested.on>
DIGSA (Digitaria Sanguinalis (L.) SCOP, large crabgrass)

>  <pest or weed control at 200 g/ha (%)>
10

$$$$

Find the measured pest or weed control at 200 g/ha of `C[C@@H](Oc1ccc(OC(F)=Cc2ccccc2)cc1)C(=O)N(C)c1ccccc1F` and report it.
90

Find the measured pest or weed control at 200 g/ha of `C[C@@H](Oc1ccc(Oc2ccc(C#N)cc2F)cc1)C(=O)Nc1nccs1` and report it.
70

Find the measured pest or weed control at 200 g/ha of `Cc1ccc(C=C(F)Oc2ccc(O[C@H](C)C(=O)Nc3ccccc3F)cc2)cc1` and report it.
50

Find the measured pest or weed control at 200 g/ha of `C[C@@H](Oc1ccc(C(F)=C(c2ccc(F)cc2)C(F)(F)F)cc1)C(=O)Nc1ccccc1F` and report it.
90

Find the measured pest or weed control at 200 g/ha of `COc1ccc2nc(NC(=O)[C@@H](C)Oc3ccc(Oc4nc5ccc(Cl)cc5o4)cc3)sc2c1` and report it.
100

* * *

System: ARTHIS (Arthraxon hispidus (Thunb.) Makino, creek grass)
Experiment: Weed control test, foliage treatment (Test Example 1, Table 7)
Assay type: in vivo
Settings: Arthraxon hispidus, foliar, 0.2 kg/ha, read-out: Plant damage (herbicidal activity), visually evaluated, ARTHIS
# key: entry, value: pest or weed control at 200 g/ha
All answers are understood in %, so give the number only.

Solved entries (count: 3):
>  <structure.as.smiles>
Cc1ccc(C=C(F)Oc2ccc(O[C@H](C)C(=O)Nc3ccccc3F)cc2)cc1

>  <tested.on>
ARTHIS (Arthraxon hispidus (Thunb.) Makino, creek grass)

>  <meas.value>
20

$$$$
>  <structure.as.smiles>
COc1ccc2nc(NC(=O)[C@@H](C)Oc3ccc(Oc4ccc(C#N)cc4F)cc3)sc2c1

>  <tested.on>
ARTHIS (Arthraxon hispidus (Thunb.) Makino, creek grass)

>  <meas.value>
10

$$$$
>  <structure.as.smiles>
C[C@@H](Oc1ccc(Oc2ccc(C#N)cc2F)cc1)C(=O)Nc1nc2ccc(F)cc2s1

>  <tested.on>
ARTHIS (Arthraxon hispidus (Thunb.) Makino, creek grass)

>  <meas.value>
10

$$$$

Find the measured pest or weed control at 200 g/ha of `Cc1cc(NC(=O)[C@@H](C)Oc2ccc(Oc3ccc(C#N)cc3F)cc2)n(C)n1` and report it.
10

Find the measured pest or weed control at 200 g/ha of `C[C@@H](Oc1ccc(OC(F)=Cc2ccccc2)cc1)C(=O)N(C)c1ccccc1F` and report it.
10

Find the measured pest or weed control at 200 g/ha of `C[C@@H](Oc1ccc(OC(F)=Cc2ccc(Cl)cc2)cc1)C(=O)Nc1nc2cc(Cl)ccc2o1` and report it.
10

Find the measured pest or weed control at 200 g/ha of `C[C@@H](Oc1ccc(Oc2nc3ccc(Cl)cc3o2)cc1)C(=O)Nc1nc2cc(Cl)ccc2o1` and report it.
100

Find the measured pest or weed control at 200 g/ha of `C[C@@H](Oc1ccc(C(F)=C(c2ccc(F)cc2)C(F)(F)F)cc1)C(=O)Nc1ccccc1F` and report it.
10
